# target.desc: SARS-CoV-2 full length spike protein, V367F mutant (SARS-CoV-2, UniProt P0DTC2 14-1273)
measured.attribute: median fluorescence fold over isotype control (fold over isotype)
Please give a number only; it is taken to be in fold over isotype.

[
  {
    "binder": "antibody 441 (antibody, V domains shown) VH: EVQLVESGGGVVRPGGSLRLSCAASGFTFGDYGMSWVRQAPGKGLEWVSGINWNGGSTGYADSVKGRFTISRDNAKNSLYLQMNSLRAEDTALYYCASDLVRGVIGFDYWGQGTLVTVSS VL: SYELTQPPSVSVSPGQTARITCSGDALPKQYAYWYQQKPGQAPVLVIYKDSERPSGIPERFSGSSSGTTVTLTISGVQAEDEADYYCQSADSSGITGVFGGGTKLTVL",
    "val": 6.24
  }
]

In plain terms, antibody 458 (antibody, V domains shown) VH: QVQLVESGGGVVQPGRSLRLSCAASEFTFATYAMHWVRQAPGKGLEWVALISQDGSNKHYADSVKGRFTISRDNSKNTLYLQMNSLRAEGTAIYYCARESLEAAGPPFDYWGQGTLVTVSS VL: SYELTQPPSVSVSPGQTATIICSGDKLGEKYASWYQQKPGQSPALVIYQDRKRPSGIPERFSGSNSGNTATLTISGTQAMDEADYYCQAWDSSNSVVFGGGTKLTVP has a documented median fluorescence fold over isotype control of 27.4
